# experimental-system: acetylcholine receptor
# protocol-text: SPR, peptide at 10 uM on immobilized AchR
endpoint-label: Binding affinity (RU)

>  <binder>
RNEEKR [6mer-2-1016]

>  <quantity-unit>
RU

>  <measured>
41

$$$$
>  <binder>
RHAHRR [6mer-2-1045]

>  <quantity-unit>
RU

>  <measured>
41

$$$$
>  <binder>
RPEIRK [6mer-2-1085]

>  <quantity-unit>
RU

>  <measured>
42

$$$$
>  <binder>
RCNDKR [6mer-2-1002]

>  <quantity-unit>
RU

>  <measured>
42

$$$$

a = RPCEKK [6mer-2-1088]
b = RIHVKK [6mer-2-1068]
# input Param metric = Binding affinity (RU); output whichever of a , b has the minimum value. Respond using the label that marks the chosen record.
# output b
(b: 26 RU, a: 39 RU)
